test system: SK-OV-3 ovarian; experiment: NCI tumour cell line growth inhibition, 48 h
# TGI per entry

Illustrative cases are given below, each with its answer.
{"columns": ["COMPOUND", "READOUT_NAME", "VALUE_MEASURED"],
 "data": [
  ["CC(=O)OCC1OC([Se-])C(OC(C)=O)C(OC(C)=O)C1OC(C)=O.N#CCC[PH+](CCC#N)CCC#N.[Au+] (stereo unspecified)", "TGI", "> 94.6 µM"],
  ["O=C1c2cccnc2C(=O)c2c1c(C(=O)OCCc1ccccn1)c1ccccn21", "TGI", "1.17 µM"],
  ["Cc1cc2c(cc1C)[n+](=O)c(C(=O)CC(=O)C(=O)Nc1ccccc1C(C)C)c(C)n2[O-]", "TGI", "> 100 µM"],
  ["O=C1Oc2cc3c(c4cccc1c24)OCN(c1ccccc1)C3", "TGI", "> 100 µM"],
  ["CC(=O)Oc1ccc(Nn2c3ccccc3c3ccccc32)c(C)c1", "TGI", "> 100 µM"]
]}

Note: attention shifts to another entry.
INPUT: Look up TGI for this compound: COC1=CC(=O)c2c(cc3c(c2O)-c2c(OC)cc4cc5c(c(O)c4c2OC(=O)CC(C)(O)C3)C(=O)CC(C)(O)C5)C1=O (stereo unspecified)
OUTPUT: 7.47 µM

====

tested on: SF-539 CNS; experiment: NCI tumour cell line growth inhibition, 48 h; in the data active = GI50 below about 0.43 µM; inactive = the rest
Pick from yes for active, no for inactive when you respond.

Example entries and their recorded answers appear below.
{"columns": ["MOLECULE", "TARGET_UNDER_TEST", "LABEL"],
 "data": [
  ["CCN1C(=O)N(CC)C2C1NC(=S)N2/N=C/C=C/c1ccccc1OC (stereo not given)", "SF-539 CNS", "yes"],
  ["NC(=N\\N=C/c1ccc(Cl)cc1Cl)/C(N)=N\\N=C/c1ccc(Cl)cc1Cl", "SF-539 CNS", "no"],
  ["O=C([O-])CCc1ccccc1.O=C([O-])CCc1ccccc1.O=C([O-])CCc1ccccc1.O=C([O-])CCc1ccccc1.[Mo+2].[Mo+2]", "SF-539 CNS", "no"],
  ["CN(CSc1ccc(Cl)cc1)c1ccc(CSc2ccc(Cl)cc2)cc1", "SF-539 CNS", "no"],
  ["NCCCNc1nc2ccc(Cl)cc2c2c(=O)c3cc(F)ccc3sc12", "SF-539 CNS", "no"],
  ["COc1cc2c(cc1OCCCCn1c(-c3cccs3)nc3ccccc31)N=C[C@@H]1CCCN1C2=O", "SF-539 CNS", "no"]
]}

INPUT: Please let me know the test result on file for Cn1c(NCC(CN2CCCC2)OC(=O)c2ccccc2)cc(=O)n(C)c1=O (stereo not given) .
OUTPUT: no

INPUT: Thanks! And O=C1NC(=O)C(c2ccccc2)=C1Nc1ccccc1 ?
OUTPUT: no

INPUT: Thanks! And CCCCN(CC)CCCCCCCCCCN1CCCc2cc(OC)ccc21 ?
OUTPUT: no

INPUT: Thanks! And CCC(C)CC(C)C(=O)c1c(O)ccn(O)c1=O (stereo not given) ?
OUTPUT: no

====

test system: SK-OV-3 ovarian; experiment: NCI tumour cell line growth inhibition, 48 h
# TGI per entry

{"columns": ["MOLECULE", "TARGET_UNDER_TEST", "VALUE_MEASURED"],
 "data": [
  ["Cn1nc(-c2ccccc2)c2c(-c3ccccc3)c3cc(Cl)ccc3nc21", "SK-OV-3 ovarian", "> 100 µM"],
  ["COc1ccc2c(c1)-c1nc(=O)n(CCCN(C)C)c3ccc([N+](=O)[O-])c(c13)N2", "SK-OV-3 ovarian", "17.3 µM"],
  ["COC(=O)c1ccc(C)cc1C1CN=NC12Cc1cc(C)ccc1C2=O (stereo not given)", "SK-OV-3 ovarian", "> 100 µM"]
]}

INPUT: Look up TGI for this molecule: COC(=O)CC(CNC(=O)OCc1ccccc1)OCc1ccc(OC)cc1 (stereo not given)
OUTPUT: > 100 µM

INPUT: Thanks! And CCCCOC(=O)NC(Nc1ccc(S(=O)(=O)Nc2ncccn2)cc1)(C(F)(F)F)C(F)(F)F ?
OUTPUT: > 100 µM

====

tested on: SR leukemia; assay: NCI tumour cell line growth inhibition, 48 h
READOUT_NAME: TGI

Illustrative cases are given below, each with its answer.
{"columns": ["COMPOUND", "TGI"],
 "data": [
  ["O=C1CC(C(OCc2ccccc2)C(OCc2ccccc2)C(OCc2ccccc2)C(COCc2ccccc2)OCc2ccccc2)CC(=O)N1 (stereo unspecified)", "> 100 µM"],
  ["Fc1cccc(C2SCc3nc4cc5ccccc5cc4n32)c1 (stereo unspecified)", "> 100 µM"],
  ["Cc1cc(C)c(S(=O)(=O)N(CCCN)OCCON(CCCN)S(=O)(=O)c2c(C)cc(C)cc2C)c(C)c1", "> 100 µM"],
  ["O=C1C=CC(=O)N1c1ccc(I)cc1", "45.5 µM"],
  ["CC1(C)OC2C(CO)OC(n3ccc(N)nc3=O)C2O1 (stereo unspecified)", "> 100 µM"]
]}

Note: attention shifts to another entry.
INPUT: Look up TGI for this compound: O=C1Oc2cc3c(c4cccc1c24)OCN(c1ccccc1)C3
OUTPUT: > 100 µM

====

system: DMS 273 small cell lung; assay: NCI tumour cell line growth inhibition, 48 h
# TGI per entry

Illustrative cases are given below, each with its answer.
{"columns": ["MOLECULE", "TARGET_UNDER_TEST", "TGI"],
 "data": [
  ["C=C1c2[nH]c3ccccc3c2CC(C(=O)O)N1C(O)c1ccc(S(=O)(=O)O)cc1 (stereo unspecified)", "DMS 273 small cell lung", "> 100 µM"],
  ["C#CCn1c(=O)c2cccnc2n(CC#C)c1=O", "DMS 273 small cell lung", "> 100 µM"],
  ["O=C1Oc2cc3c(c4cccc1c24)OCN(c1ccccc1)C3", "DMS 273 small cell lung", "> 100 µM"],
  ["Cc1ccc(NC(=O)/C(=N\\NC(N)=S)C(C#N)c2ccccc2C)cc1C (stereo unspecified)", "DMS 273 small cell lung", "> 100 µM"],
  ["CC(C)(CN1CCCCC1)C(=O)CC(SCCN)c1ccc(Cl)cc1 (stereo unspecified)", "DMS 273 small cell lung", "4.96 µM"]
]}

Note: attention shifts to another entry.
INPUT: Look up TGI for this molecule: COc1cc(C2C(C(=O)O)=C(COC(C)=O)Oc3cc4c(cc32)OCO4)cc(OC)c1OC(C)=O (stereo unspecified)
OUTPUT: > 100 µM

====

test system: HCC-2998 colon; test: NCI tumour cell line growth inhibition, 48 h
READOUT_NAME: TGI

{"columns": ["MOLECULE", "VALUE_MEASURED"],
 "data": [
  ["Oc1ccc(Cc2ccc(O)c(C3CC(c4ccc(Cl)cc4)=NN3)c2)cc1C1CC(c2ccc(Cl)cc2)=NN1 (centres undefined)", "> 30.8 µM"],
  ["O=C1C(=C([O-])c2ccccc2)C(=O)c2ccccc21.O=C1C(=C([O-])c2ccccc2)C(=O)c2ccccc21.[Co+2]", "> 100 µM"],
  ["FC(F)(F)c1ccc(-c2ncc(-c3ccc(C(F)(F)F)cc3)c(NCc3cc(C(F)(F)F)cc(C(F)(F)F)c3)n2)cc1", "46.7 µM"]
]}

Note: attention shifts to another entry.
INPUT: Look up TGI for this molecule: NC(CO)c1ccc(OCc2ccccc2)cc1 (centres undefined)
OUTPUT: > 100 µM

====

# TGI per entry
tested on: CAKI-1 renal; test: NCI tumour cell line growth inhibition, 48 h

Illustrative cases are given below, each with its answer.
{"columns": ["MOLECULE", "TGI"],
 "data": [
  ["COC(=O)[C@H](COC(C)(C)C)NC(=O)N[C@H](C)c1ccccc1", "> 100 µM"],
  ["CN1C(C)(C)CC(=O)C(Br)C1(C)C (configuration not stated)", "> 100 µM"],
  ["COc1ncc(-c2ccc3nccc(C#CCN4CCN(S(C)(=O)=O)CC4)c3c2)cc1NS(=O)(=O)c1ccc(F)cc1F", "13.4 µM"],
  ["O=C1CCCCC1C(O)(C(F)(F)F)C(F)(F)Cl (configuration not stated)", "> 10 µM"],
  ["CCP(=O)(CC)C(Cl)(Cl)C(O)C(Cl)(Cl)Cl (configuration not stated)", "> 100 µM"],
  ["NC(=O)CCc1ccccc1Oc1nccc(-c2c(-c3ccc(F)cc3)ncn2C2CCNCC2)n1", "> 25 µM"]
]}

Note: attention shifts to another entry.
INPUT: Look up TGI for this molecule: CCN1C(=O)N(CC)C2C1NC(=S)N2/N=C/C=C/c1ccccc1OC (configuration not stated)
OUTPUT: > 100 µM

====

system: CAKI-1 renal; assay: NCI tumour cell line growth inhibition, 48 h
READOUT_NAME: TGI

{"columns": ["COMPOUND", "VALUE_MEASURED"],
 "data": [
  ["N#Cc1c2ccccc2c2nnc3ccc(C(F)(F)F)cc3n12", "> 100 µM"],
  ["O=C(CCN1CCC(CCO)CC1)Nc1ccc2c(c1)C(=O)c1ccc(NC(=O)CCN3CCC(CCO)CC3)cc1C2=O", "> 100 µM"],
  ["COC(=O)c1ccc(C)cc1C1CN=NC12Cc1cc(C)ccc1C2=O (stereo unspecified)", "97.3 µM"],
  ["CC(C)OC(=O)NNc1cccc(Cl)c1", "> 100 µM"],
  ["CCOC(=O)C1=CNC(C(=O)OCC)C1c1cccn1-c1ccccc1 (stereo unspecified)", "> 100 µM"]
]}

INPUT: Look up TGI for this compound: COC(=O)[C@]1(C)CCC[C@]2(C)[C@@H](CCC(=O)C(C)C)[C@]3(C=O)O[C@@H]3C[C@H]21
OUTPUT: 31.9 µM

INPUT: Thanks! And CCOC(=O)Nc1n[nH]nc1Cl ?
OUTPUT: > 100 µM

INPUT: Thanks! And COCC12CCC(OC)C34C5CC6(O)C(OC)C=C(C5C6OC(=O)c5ccccc5)C(C(OC)C13)C4N(C)C2 (stereo unspecified) ?
OUTPUT: > 100 µM

INPUT: Thanks! And CC(=O)OCC1OC(OC(C)=O)C(Nc2ncc(-c3ccc(C)cc3)s2)C(OC(C)=O)C1OC(C)=O (stereo unspecified) ?
OUTPUT: 31.2 µM

INPUT: Thanks! And CO[C@H]1O[C@@H]2OC3(C)CCC4[C@H](C)CCC([C@H]1C)[C@]42OO3 (stereo partly specified) ?
OUTPUT: > 100 µM

INPUT: Thanks! And C=CC(OC(=O)C(C)C)c1ccc(OC(=O)C(C)C)cc1 (stereo unspecified) ?
OUTPUT: 10.2 µM

INPUT: Thanks! And N#Cc1c2ccccc2c2nnc3ccccc3n12 ?
OUTPUT: > 100 µM
